Data provenance: the supplement of paper PMC10567573

Assay text: protein stability index of a GFP-peptide fusion (GPS, HEK-293T) (PSI 1-6); higher = more stable;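 also: 24-mer peptide tiles fused after GFP, lentivirally expressed, FACS-sorted into six equal bins by GFP/DsRed ratio, decoded by Illumina sequencing, PSI is the read-weighted mean bin number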
Test settings: treatment: MLN4924 1 uM, 8 h; c terminus: a fixed tail appended
Quick rule: protein stability index of at least 5 means 1, below that means -1.

// query Check this sequence for protein stability index at or above 5: SLADGGSASPIKDQPVMAVKTGED [FANCE]
// result 1

// query Does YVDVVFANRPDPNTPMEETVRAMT [KCNAB2] have a reported protein stability index of at least 5?
// result -1

// query Is the recorded value of protein stability index equal to or greater than 5 for this sequence? ESNAAQYSPEALASIQNHVRKREA [EFHC1]
// result -1

// query Confirm if protein stability index reported for the sequence LCEYFSQHLGEYENVLAALEGLNL [NECAB1] is 5 or above.
// result -1

* * *

Assay text: protein stability index of a GFP-peptide fusion (GPS, HEK-293T) (PSI 1-6); higher = more stable
Test settings: treatment: MLN4924 1 uM, 8 h; c terminus: a fixed tail appended
Answer each item with its documented protein stability index.
Respond numerically, and do not add a unit to the figure.

// query Which protein stability index is listed for ADSLQASMEKDATLNVDRKEKCVS [DLC1] ?
// result 5.3

// query Report protein stability index for VLIRYPNSLDTTSWAWRGPGVLKV [LPCAT4] please.
// result 2.69

// query Give the measured protein stability index of PGPTAPSPTSRPPWAVDPAFAERY [PDLIM7] .
// result 3.02

// query Please report the recorded protein stability index for AVDCKWYIRAPPRSKIYLRFLDYE [NETO1] .
// result 2.19

// query Fill in: protein stability index of SAFGNVKLVVHDCPVWDIFDSDWY [RHOBTB3] is ___
// result 2.2

// query Requested field: protein stability index. Item: FQTAIDIFEDRIRGIDIIKWMERY [TRAF3IP2]
// result 2.43

// query Could you share which protein stability index value was measured for FIPECNDDGTYSQVQCHSYTGYCW [SMOC2] ?
// result 2.27

// query Entry under review: GGGGLHSVGTYIIDLLTFLTGQKA [GFOD1] . Reported protein stability index?
// result 1.98

// query Give its protein stability index value. Item: GVLRPTVRPGTPPDFILKVVIDKH [CTDNEP1]
// result 2.67

// query Suppose we examine the sequence EVDPVRRAVRDRNLLRDDRVLQNL [CCND2] ; what protein stability index value has been reported?
// result 4.01

// query Which protein stability index value is on record for DIEQFFNIGDSSSGLIQTVFISSY [SPNS1] ?
// result 2.66

// query I'd like to know its protein stability index. The sequence in question is FQQLMVETCSCGYYLHPLPAGAEY [SCNN1D]
// result 2.8

* * *

I'd be grateful if you could share measured protein stability index for these entries.
Assay text: protein stability index of a GFP-peptide fusion (GPS, HEK-293T) (PSI 1-6); higher = more stable
Test settings: treatment: MLN4924 1 uM, 8 h; c terminus: a fixed tail appended
Respond with the number and no other words.

// query Param item = RDEVRFFKGNKYWAVQGQNVLHGY [MMP1] ; retrieve measured protein stability index.
// result 2.51

// query Using the record for GLKPNSLYYFRLAARSPQGLGAST [PTPRD] , report its protein stability index.
// result 2.85

// query Look at this sequence and give its reported protein stability index. SMGFSARYNFTPDPDFKDLGALKP [NETO1]
// result 3.26

// query Looking for the measured protein stability index of LPPNNSYADFERFSKVLEEAAAAE [DAPK3] , can you help?
// result 5.07

// query Which value of protein stability index has been reported for GPQTPKACDSKLTFDAITTIRGEV [MMP1] in the records?
// result 3.66

// query What protein stability index value was documented for this sequence, MQALEIELQSQLSMKASLEGNLAE [KRT17] ?
// result 3.45

// query # query: protein stability index of entry SHLQWQESRLKRSNPLAREIFRRH [ZSCAN9]
// result 3.35

// query Dear colleague, I am looking for the recorded protein stability index of the following sequence: PGFDSSVYSDLCEAAEAVRPEERK [ADAMTSL2]
// result 5.83

// query For the sequence shown here, KAVSEMRQKIWNNMPKDHPVSCCL [DYNC2LI1] , give the reported protein stability index.
// result 2.46

// query Value lookup for protein stability index; key = AHIALETLEGHQRAIMAHMTVEEI [FLOT1]
// result 3.51

// query Entry under review: SVNWRTGSFHGPGHISLRRENSSD [DLC1] . Reported protein stability index?
// result 3.86

// query Can you share its protein stability index? I mean this sequence: AAKIIPHSRVAKPHQREKIDKEIE [PLK2]
// result 4.7

// query # get_value(readout='protein stability index', item= WKSHLKKVQKPLLQAPFLPPKAPP [RHOBTB1] )
// result 3.37

// query Need protein stability index of ELTNGVINAAFMLLFKDLIKLFAC [SNAP91] , thanks.
// result 3.14

// query Give its protein stability index value. Item: ILGPAYFVTYVFFVFFVLLNMFLA [PKD2L1]
// result 3.22

// query Find the recorded protein stability index belonging to FPDLLLTKRDSFLKRLYRAPIDWI [ALG2] and report it.
// result 2.64

// query # query: protein stability index of entry RLWHTACASDEGEVIVFGGCANNL [KLHDC2]
// result 2.89

// query Please give the measured protein stability index for this sequence: VCYQYPGYRGYQYILECDHHGGDY [CRYBA1]
// result 2.08

// query Which measured protein stability index value corresponds to IAKELSKTYQETPEIDMFLNVATF [ZBED1] ?
// result 2.12

// query Value lookup for protein stability index; key = IRIIDRALKEDFGFKHRLWVYSGR [PRIM1]
// result 2.27

// query Fill in: protein stability index of NKYDNTCLMIAAYKGHTDVVRYLL [FEM1B] is ___
// result 2.31

// query Which protein stability index reading was recorded for the sequence VQRKSDFDQTVFQEVFEPPHYELC [NETO1] ?
// result 3.62

// query Please give the measured protein stability index for this sequence: WNVLMWTSLFLGNGVLLCFYSQEW [SOAT1]
// result 2.7

// query Please give the measured protein stability index for this sequence: QAIEPQAIVQQVPAPSRMQMPQGN [SNX8]
// result 4.75

// query // lookup protein stability index for KIWPEIKVPRPDALDNESWGFVHP [RETREG3]
// result 2.57

// query Tell me the measured protein stability index of NIMNKEAFMNQEITKAFHVRKANR [RHOBTB1] , please.
// result 3.45

// query Consider the sequence EMLAAACQMFLGKTEAEIAHIALE [FLOT1] and give its measured protein stability index.
// result 2.78

// query Which protein stability index value is on record for HEKTVDIYGHVTLMRAQRNYMVQT [PTPRD] ?
// result 2.18

// query Given the entry PGSLGPWKITIYDQENFQGKRMEF [CRYBA1] , report its measured protein stability index.
// result 2.18

// query May I ask what protein stability index has been recorded for PKRCLKAREHFGTVKTHLTSLKTK [TSN] ?
// result 3.88

// query Record request: protein stability index value, item QGTGYIPTEQVNELVALIPHSDQR [TMEM106C]
// result 4.67

// query Would you kindly share the measured protein stability index for FRKFIPKCSKIVIDFDSINSRPSQ [DCTD] ?
// result 2.15

// query protein stability index for ATIVFATDFYLIFNDVAKFLKQGD [CMTM3] ?
// result 2.77

// query Any idea what protein stability index was measured for VSSQRFKSSVYRRYNDFVVFQEML [SNX8] ?
// result 2.21

// query protein stability index value for entry MAAGNTVIAKPSELTSVTAWMLCK [ALDH8A1]
// result 2.35

// query If you can, please state the reported protein stability index value of APEYRGRTELLKDAIGEGKVTLRI [MOG] .
// result 2.72

// query # lookup: protein stability index of HDLIFWRDVKKTGFVFGTTLIMLL [RTN3]
// result 2.66

// query Reported protein stability index, sequence DSYESYGNSRSAPPTRGPPPSYGG [RBMX] : ____
// result 4.33

// query Tell me the measured protein stability index of IWTAHYDPGHCFAESRELPVRCAG [ALG2] , please.
// result 2.4
